# study.system: human μ opiate receptor (Homo sapiens)
# Construct: purchased PerkinElmer Life Sciences, Zaventem, Belgium RB-HOM; host or cells: CHO-K1 cells (membrane preparation)
# Sequence (P35372 whole entry): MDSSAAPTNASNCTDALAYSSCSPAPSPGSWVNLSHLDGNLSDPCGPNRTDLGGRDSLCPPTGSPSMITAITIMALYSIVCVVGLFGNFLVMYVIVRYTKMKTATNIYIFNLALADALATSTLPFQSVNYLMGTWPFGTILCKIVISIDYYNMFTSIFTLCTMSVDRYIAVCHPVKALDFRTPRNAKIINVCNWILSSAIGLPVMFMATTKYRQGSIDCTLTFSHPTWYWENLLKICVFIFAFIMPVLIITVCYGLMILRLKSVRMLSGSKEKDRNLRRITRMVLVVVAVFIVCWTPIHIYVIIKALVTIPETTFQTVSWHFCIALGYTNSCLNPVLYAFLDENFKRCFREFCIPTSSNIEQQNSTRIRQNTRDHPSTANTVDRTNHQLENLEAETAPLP
# measurement.protocol: Affinity for the human μ opiate receptor ([3H]-naloxone displacement, CHO-K1 receptor membrane preparation, SPA)
# Type: binding
# experimental.parameters: 1.5 h, Table 3, to be read in the same way as Table 1; test concentration 1 μM; read-out: μ
# Procedure: Binding data of the compounds on the μ opioid receptor and data on the inhibition of reuptake of serotonin (5-HT) are given in Table 1. The data for the μ receptor were measured at a test concentration of 1 μM, and those for the serotonin reuptake at 10 μM. The values are stated in % inhibition. […] The receptor affinity for the human p opiate receptor is determined in a homogeneous set-up in microtitre plates. […]
Classification by inhibition at 1 µM follows these ranges: A = under 20%, B = from 20% up to 40%, C = 40% and over

* COc1cc(C)c(S(=O)(=O)N2CCCCC2COCC(=O)NC2CCC(C(CCc3ccccc3)N3CCCCC3)CC2)c(C)c1 (stereo not drawn) [Example 734] | C
* O=C(COCC1CCCCN1S(=O)(=O)c1c(Cl)cc(Cl)cc1Cl)NCC1CCC(C(c2ccccc2)N2CCCC2)CC1 (stereo not drawn) [Example 658] | C
* CN(CCOCC(=O)NC1CCC(C(CCc2ccccc2)N2CCOCC2)CC1)S(=O)(=O)c1c(Cl)cc(Cl)cc1Cl (stereo not drawn) [Example 636] | A
* CN1CCN(C(Cc2ccccc2)C2CCN(C(=O)COCC3CCc4ccccc4N3S(=O)(=O)c3ccc(Cl)c(Cl)c3)CC2)CC1 (stereo not drawn) [Example 812] | B
* O=C(COC1CCCN(S(=O)(=O)c2c(Cl)cc(Cl)cc2Cl)C1)NC1CCC(C(c2ccccc2)N2CCOCC2)CC1 (stereo not drawn) [Example 691] | C
* CN(CCOCC(=O)NC1CCC(C(CCc2ccccc2)N2CCCCC2)CC1)S(=O)(=O)c1ccc(Cl)cc1Cl (stereo not drawn) [Example 661] | B
* COc1cc(C)c(S(=O)(=O)N2CCCCC2COCC(=O)N2CCC(C(c3ccc(F)cc3)N3CCN(C)CC3)CC2)c(C)c1 (stereo not drawn) [Example 805] | A
* CN1CCN(C(c2ccccc2)C2CCC(NC(=O)COC3CCN(S(=O)(=O)c4c(Cl)cc(Cl)cc4Cl)C3)CC2)CC1 (stereo not drawn) [Example 686] | B
* CN(CCOCC(=O)NC1CCC(C(c2ccccc2)N2CCOCC2)CC1)S(=O)(=O)c1c(Cl)cc(Cl)cc1Cl (stereo not drawn) [Example 638] | A
* O=C(COCC1CCCN(S(=O)(=O)c2c(Cl)cc(Cl)cc2Cl)C1)NCC1CCC(C(c2ccccc2)N2CCCC2)CC1 (stereo not drawn) [Example 659] | C
* COc1cc(C)c(S(=O)(=O)N2CCCCC2COCC(=O)NCC2CCC(C(CCc3ccccc3)N3CCOCC3)CC2)c(C)c1 (stereo not drawn) [Example 753] | A
* COc1cc(C)c(S(=O)(=O)N2CCCC(OCC(=O)NCC3CCC(C(CCc4ccccc4)N4CCCC4)CC3)C2)c(C)c1 (stereo not drawn) [Example 731] | C
* COc1cc(C)c(S(=O)(=O)N2CCCC(OCC(=O)NC3CCC(C(CCc4ccccc4)N4CCOCC4)CC3)C2)c(C)c1 (stereo not drawn) [Example 674] | A
* CN(CCOCC(=O)NC1CCC(C(CCc2ccccc2)N2CCOCC2)CC1)S(=O)(=O)c1c(Cl)cc(C(F)(F)F)cc1Cl (stereo not drawn) [Example 670] | A
* COc1cc(C)c(S(=O)(=O)N2CCCC(COCC(=O)NC3CCC(C(c4ccccc4)N4CCOCC4)CC3)C2)c(C)c1 (stereo not drawn) [Example 701] | A
* COc1cc(C)c(S(=O)(=O)N2CCCC(COCC(=O)NCC3CCC(C(c4ccccc4)N4CCCC4)CC3)C2)c(C)c1 (stereo not drawn) [Example 655] | B
* CN(CCOCC(=O)NC1CCC(C(CCc2ccccc2)N2CCCCC2)CC1)S(=O)(=O)c1c(Cl)cc(Cl)cc1Cl (stereo not drawn) [Example 637] | B
* CN(CCOCC(=O)NCC1CCC(C(CCc2ccccc2)N2CCCC2)CC1)S(=O)(=O)c1c(Cl)cccc1Cl (stereo not drawn) [Example 722] | B
* COc1cc(C)c(S(=O)(=O)N2CCCCC2COCC(=O)NC2CCC(C(c3ccccc3)N3CCN(C)CC3)CC2)c(C)c1 (stereo not drawn) [Example 735] | C
* COc1cc(C)c(S(=O)(=O)N2CCCC2COCC(=O)NC2CCC(C(CCc3ccccc3)N3CCOCC3)CC2)c(C)c1 (stereo not drawn) [Example 676] | A
* COc1cc(C)c(S(=O)(=O)N(C)CCOCC(=O)NC2CCC(C(c3ccccc3)N3CCN(C)CC3)CC2)c(C)c1 (stereo not drawn) [Example 682] | B
* CN(CCOCC(=O)NCC1CCC(C(CCc2ccccc2)N2CCCC2)CC1)S(=O)(=O)c1c(Cl)cc(Cl)cc1Cl (stereo not drawn) [Example 640] | B
* COc1cc(C)c(S(=O)(=O)N2CCCC(COCC(=O)NCC3CCC(C(CCc4ccccc4)N4CCCC4)CC3)C2)c(C)c1 (stereo not drawn) [Example 757] | B
* CN1CCN(C(c2ccccc2)C2CCC(NC(=O)COCC3CCCN(S(=O)(=O)c4c(Cl)cc(Cl)cc4Cl)C3)CC2)CC1 (stereo not drawn) [Example 742] | B
* COc1cc(C)c(S(=O)(=O)N(C)CCOCC(=O)NC2CCC(C(CCc3ccccc3)N3CCOCC3)CC2)c(C)c1 (stereo not drawn) [Example 662] | A
